Tested on: CP217
Assay: qHTS profiling for inhibitors of Plasmodium falciparum proliferation (AID 504749); note: nearly all actives have a fitted effect of over 60% in size
Details: P. falciparum in erythrocytes, SYBR Green DNA, 72 h; series mostly up to 12.8 µM
Method: NIH National Institute of Allergy and Infectious Diseases [NIAID] NIH Chemical Genomics Center [NCGC] […] Because mature erythrocytes lack DNA, only Plasmodium-derived DNA is detected. NCGC Assay Protocol Summary: The SYBR Green viability assay was adapted from a method described previously (Plouffe et al., 2008). […] The following morning, fluorescence intensity at 485(14) nm excitation and 535(25) nm emission wavelengths was measured on an EnVision (Perkin Elmer) plate reader. […]
Inconclusive results are not listed. Activity calls are given as the source filed them. Calls come from the whole dose curve; as a rule, active = well fitted inhibition curve with a large enough effect; inconclusive = small, poorly fitted or top-dose-only effect; inactive = flat fitted curve, though single readings scatter.
Give your call using only these classes: active, inactive

molecule	label
COc1ccc2cc1Oc1ccc(cc1)CC1c3c(cc4c(c3Oc3cc5c(cc3OC)CCN(C)C5C2)OCO4)CCN1C (centres undefined)	active

Input line: Please share the test call associated with CC1C2CCC3C4CC=C5CC(N(C)C)CC[C@@]5(C)C4CC[C@@]32CN1C (some centres undefined) .
Output line: inactive

Input line: Please share the test call associated with `NC(=O)c1ccc[n+]([C@@H]2O[C@H](COP(=O)([O-])OP(=O)(O)OC[C@H]3O[C@@H](n4cnc5c(N)ncnc54)[C@@H](O)[C@@H]3O)[C@@H](O)[C@@H]2O)c1` .
Output line: inactive

Input line: Please share the test call associated with `CC[C@](C)(CN(C)C)OC(=O)c1ccccc1` .
Output line: inactive

* * *

Molecular target: Cytochrome P450 2C9 (Homo sapiens) (UniProt P11712)
Sequence (P11712 whole entry, looked up): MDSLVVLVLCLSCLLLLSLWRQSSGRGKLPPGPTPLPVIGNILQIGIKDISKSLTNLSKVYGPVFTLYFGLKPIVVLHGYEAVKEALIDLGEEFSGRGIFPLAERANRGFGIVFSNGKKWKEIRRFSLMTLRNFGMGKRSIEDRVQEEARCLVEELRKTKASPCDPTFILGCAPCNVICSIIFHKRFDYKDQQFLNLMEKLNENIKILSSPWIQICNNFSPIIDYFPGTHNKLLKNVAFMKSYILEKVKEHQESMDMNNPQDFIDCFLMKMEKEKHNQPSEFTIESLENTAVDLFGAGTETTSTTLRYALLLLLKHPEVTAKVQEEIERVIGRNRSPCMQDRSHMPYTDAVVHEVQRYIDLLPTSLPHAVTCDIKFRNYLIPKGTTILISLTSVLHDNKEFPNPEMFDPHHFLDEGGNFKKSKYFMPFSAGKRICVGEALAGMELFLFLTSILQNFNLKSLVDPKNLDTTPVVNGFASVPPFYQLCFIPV
Assay: qHTS Assay for Inhibitors and Substrates of Cytochrome P450 2C9 (AID 883); note: nearly all actives have a fitted effect of over 60% in size
Conditions: recombinant CYP2C9, luciferin-H luminescence, 60 min; series mostly up to 25.6 µM
Records with an inconclusive call do not appear. The source made the active and inactive calls. The call rests on the fitted dose curve; in most records, active means well fitted inhibition curve with a large enough effect; inconclusive means small, poorly fitted or top-dose-only effect; inactive means no such curve, though single readings can be large or run the other way.
Give your call using only these classes: Yes (active), No (inactive)

test.smiles	label
O=C(/C=C\c1ccc(O)c(O)c1)O[C@@H]1C[C@](O)(C(=O)O)C[C@@H](O)[C@@H]1O	No
CC(=O)N[C@H](CS)C(=O)O	No
C/C(=C\CNc1ncnc2nc[nH]c12)CO	No
Nc1ccn([C@@H]2CC[C@H](CO)O2)c(=O)n1	No
CC#C[C@@]1(O)CC[C@H]2[C@@H]3CCC4=CC(=O)CCC4=C3[C@H](c3ccc(N(C)C)cc3)C[C@]21C	Yes

Next compound, please.
Input line: Please share the test call associated with `CCC[C@H]1C[C@H](C(=O)N[C@H]([C@@H]2O[C@H](SC)[C@@H](O)[C@H](O)[C@@H]2O)[C@H](C)O)N(C)C1` .
Output line: No

* * *

System: CP260
Assay: qHTS profiling for inhibitors of Plasmodium falciparum proliferation (AID 504749); note: nearly all actives have a fitted effect of over 60% in size
Conditions: P. falciparum in erythrocytes, SYBR Green DNA, 72 h; series mostly up to 12.8 µM
Inconclusive results are not listed. Active and inactive are the calls of the source. The call rests on the fitted dose curve; in most records, active means well fitted inhibition curve with a large enough effect; inconclusive means small, poorly fitted or top-dose-only effect; inactive means flat fitted curve, though single readings scatter.
quantity: outcome

Look over these answered cases.
compound	outcome
C1CCN2C[C@@H]3C[C@@H](CN4CCCC[C@H]34)[C@H]2C1	inactive
NC[C@@H]1O[C@H](O[C@@H]2[C@H](O[C@@H]3O[C@H](CO)[C@@H](O)[C@@H]3O)[C@@H](O)[C@@H](N)C[C@H]2N)[C@@H](N)[C@H](O)[C@@H]1O	inactive
CCO[C@H]1O[C@@H]([C@H](COCc2ccccc2)OCc2ccccc2)[C@@H](OCc2ccccc2)[C@H]1O	inactive
CN(C)CCc1c[nH]c2ccc(CC3COC(=O)N3)cc12 (stereo not given)	inactive
C[C@H](CCC(=O)O)[C@H]1CC[C@@H]2[C@@H]3[C@@H](O)C[C@H]4C[C@@H](O)CC[C@@]4(C)[C@H]3CC[C@@]21C	inactive
Nc1nc(NC2CC2)c2ncn([C@H]3C=C[C@@H](CO)C3)c2n1	inactive

Input line: Give the reported outcome for `NC(=O)c1cc[n+](CC2=C(C(=O)[O-])N3C(=O)[C@@H](NC(=O)Cc4cccs4)[C@@H]3SC2)cc1` (system: CP260).
Output line: inactive

Input line: Give the reported outcome for `NC(=O)N[C@H]1NC(=O)NC1=O` (system: CP260).
Output line: inactive

Input line: Give the reported outcome for O=C1OC(CO)C(O)C(O)C1O (stereo not given) (system: CP260).
Output line: inactive

Input line: Give the reported outcome for `NC[C@@H]1O[C@@H](O[C@H]2[C@H](O)[C@H](O[C@@H]3O[C@H](CO)[C@@H](O)[C@H](N)[C@@H]3O)[C@@H](N)C[C@H]2N)[C@H](N)C[C@@H]1O` (system: CP260).
Output line: inactive

* * *

Test system: AA1029
Assay: qHTS profiling for inhibitors of Plasmodium falciparum proliferation (AID 504749); note: nearly all actives have a fitted effect of over 60% in size
Settings: P. falciparum in erythrocytes, SYBR Green DNA, 72 h; series mostly up to 12.8 µM
Records with an inconclusive call do not appear. The source made the active and inactive calls. Calls follow the shape of the dose curve; as a rule, active = well fitted inhibition curve with a large enough effect; inconclusive = small, poorly fitted or top-dose-only effect; inactive = flat fitted curve, though single readings scatter.
Give your call using only these classes: label 1 = active, label 0 = inactive

Check out these entries, answers already filled in.
compound	system.under.test	label
C[C@@H](C(=O)O)c1ccc(C(=O)c2ccccc2)s1	AA1029	label 0
Cc1ccsc1/C=C\C1=NCCCN1C	AA1029	label 0

Input line: Please share the test call associated with `CC1(C)S[C@@H]2[C@H](NC(=O)[C@@H](N)c3ccccc3)C(=O)N2[C@H]1C(=O)O[C@H]1OC(=O)c2ccccc21` .
Output line: label 0

Input line: Please share the test call associated with `CC1=C(C(=O)O)N2C(=O)[C@@H](NC(=O)[C@@H](N)c3ccc(O)cc3)[C@@H]2SC1` .
Output line: label 0

Input line: Please share the test call associated with CC(=O)OC1CCC2C3CCc4cc(O)ccc4C3CCC12C (stereo not drawn) .
Output line: label 0

Input line: Please share the test call associated with CC(C)C1CCC(C(=O)NC(Cc2ccccc2)C(=O)O)CC1 (stereo not drawn) .
Output line: label 0

Input line: Please share the test call associated with `CC(C)(C)NC[C@@H](O)COc1ccccc1C1CCCC1` .
Output line: label 1

Input line: Please share the test call associated with CC1CCC(C(C)C)C(=O)C1 (stereo not drawn) .
Output line: label 0

Input line: Please share the test call associated with `C#C[C@]1(O)CC[C@@H]2[C@H]3CCC4=CCCC[C@@H]4[C@@H]3CC[C@@]21C` .
Output line: label 0

Input line: Please share the test call associated with `C1CCN2C[C@@H]3C[C@@H](CN4CCCC[C@H]34)[C@H]2C1` .
Output line: label 0

Input line: Please share the test call associated with `NC[C@@H]1O[C@@H](O[C@H]2[C@H](O)[C@H](O[C@@H]3O[C@H](CO)[C@@H](O)[C@H](N)[C@@H]3O)[C@@H](N)C[C@H]2N)[C@H](N)C[C@@H]1O` .
Output line: label 0

Input line: Please share the test call associated with `CC[C@H]1NC(=O)c2cc(S(N)(=O)=O)c(Cl)cc2N1` .
Output line: label 0

Input line: Please share the test call associated with `CCO[C@H]1O[C@@H]([C@H](COCc2ccccc2)OCc2ccccc2)[C@@H](OCc2ccccc2)[C@H]1O` .
Output line: label 0

Input line: Please share the test call associated with `CN1C(=O)C[C@H](c2ccccc2)C1=O` .
Output line: label 0

Input line: Please share the test call associated with COC1C=CO[C@@]2(C)Oc3c(C)c(O)c4c(O)c(c(C=NN5CCN(C)CC5)c(O)c4c3C2=O)NC(=O)/C(C)=C\C=CC(C)C(O)[C@@H](C)C(O)C(C)[C@H](OC(C)=O)C1C (stereo partly drawn) .
Output line: label 1

Input line: Please share the test call associated with `NC[C@@H]1O[C@H](O[C@H]2[C@H](O)[C@H](O[C@@H]3O[C@H](CO)[C@@H](O)[C@H](N)[C@@H]3O)[C@@H](N)C[C@H]2N)[C@@H](O)[C@H](O)[C@@H]1O` .
Output line: label 0

Input line: Please share the test call associated with `CC1(C)O[C@H]2C[C@@H]3[C@H]4CCC5=CC(=O)CC[C@@]5(C)[C@]4(F)[C@@H](O)C[C@@]3(C)[C@@]2(C(=O)CCl)O1` .
Output line: label 1

Input line: Please share the test call associated with `C[N+]12CCC(CC1)[C@@H](OC(=O)C(O)(c1ccccc1)c1ccccc1)C2` .
Output line: label 0

* * *

Biological target: Cytochrome P450 2D6 (Homo sapiens) (UniProt P10635)
Sequence (P10635 whole entry, looked up): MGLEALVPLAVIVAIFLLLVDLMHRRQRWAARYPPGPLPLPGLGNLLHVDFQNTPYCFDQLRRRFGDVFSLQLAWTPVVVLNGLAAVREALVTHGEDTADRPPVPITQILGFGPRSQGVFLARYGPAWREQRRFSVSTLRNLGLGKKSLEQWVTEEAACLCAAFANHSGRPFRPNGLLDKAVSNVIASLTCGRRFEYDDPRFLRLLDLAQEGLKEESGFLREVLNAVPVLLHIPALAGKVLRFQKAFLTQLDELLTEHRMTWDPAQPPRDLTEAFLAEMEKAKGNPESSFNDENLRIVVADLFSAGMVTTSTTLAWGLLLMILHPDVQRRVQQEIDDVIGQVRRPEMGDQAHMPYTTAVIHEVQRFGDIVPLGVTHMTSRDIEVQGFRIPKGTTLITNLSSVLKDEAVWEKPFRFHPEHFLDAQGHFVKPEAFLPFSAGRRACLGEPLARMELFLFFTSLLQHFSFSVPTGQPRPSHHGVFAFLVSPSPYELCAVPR
Assay: Cytochrome P450 family 2 subfamily D member 6 (CYP2D6) small molecule antagonists: luciferase biochemical (cell-free) qHTS assay (AID 1645840); note: nearly all actives have a fitted effect of over 55% in size; note: potency is the fitted concentration of half-maximal effect
Settings: P450-Glo CYP2D6 enzyme, luciferin luminescence, 1 h; series mostly up to 57.4 µM
Results filed as inconclusive are left out. Active and inactive are the calls of the source. Calls follow the shape of the dose curve; as a rule, active = well fitted inhibition curve with a large enough effect in the repeat runs; inconclusive = weak or mixed curves; inactive = flat fitted curve, though single readings scatter.
quantity: Potency

Look over these answered cases.
molecule	quantity	test.result
CCNC(=O)N1CCN(C(=O)c2cnc3cc(OC)ccc3c2N2CCC(C)(C#N)CC2)CC1	Potency	inactive
COc1ccc(CCNC(=O)Cn2nc(C)c3c(C)n(-c4ccc(C)cc4)nc3c2=O)c(OC)c1	Potency	8.49 µM (active)
Cc1ccc(NC(=O)Cn2c(=O)n(CCC(=O)NCc3ccc4c(c3)OCO4)c(=O)c3sccc32)c(C)c1	Potency	1.69 µM (active)
Cc1nn(CC(=O)NCCc2ccccc2)c(=O)c2c1sc1ccccc12	Potency	12 µM (active)
COc1cccc(-c2oc3ccc(C)cc3c(=O)c2O)c1	Potency	7.56 µM (active)

Input line: // lookup Potency for `CC(C)[C@H](N)C(=O)O`
Output line: inactive

Input line: // lookup Potency for `COc1cccc(Cn2c(SCC(=O)N3CCN(c4ccc(F)cc4)CC3)nc3ccccc32)c1`
Output line: 10.7 µM (active)

Input line: // lookup Potency for CC1(C)CC1C(=O)NC(=CCCCCSCC(N)C(=O)O)C(=O)O (stereo not drawn)
Output line: inactive
